molecular target: human STAT6/pIL-4Rα (Homo sapiens, UniProt P42226); construct: histidine tag; assay: Binding inhibitory activity between human STAT6/pIL-4Rα by fluorescence polarization method; conditions: rhSTAT6 (123-658) / FAM-pIL-4Rα peptide
pIC50: −log10 of the molar value.
Quick rule: pIC50 of at least 6 means Met, below that means Not met.

Below, 5 compounds whose answers are already recorded.
Query string: Evaluate COCCn1c(-c2ccc(-n3c(C)nn(C)c3=O)cc2)cc2cc(C(F)(F)F)cc(C(=O)Nc3cccc(C(=O)Nc4ccn(C5CC5)n4)c3)c21 : pIC50 at minimum 6?
Result string: Met

Query string: Evaluate CCn1c(-c2ccc(-n3c(C)nn(C)c3=O)cc2)cc2nc(C(F)(F)F)cc(C(=O)Nc3cccc(C(N)=O)c3F)c21 : pIC50 at minimum 6?
Result string: Met

Query string: Evaluate CCn1c(-c2ccc(N3C(=O)C(C)CC3C)cc2)cc2cc(C(F)(F)F)nc(C(=O)Nc3cccc(C(N)=O)c3)c21 (stereo not drawn) : pIC50 at minimum 6?
Result string: Met

Query string: Evaluate Cc1nn(C)c(=O)n1-c1ccc(-c2cc3ccnc(C(=O)Nc4cccc(C(N)=O)c4F)c3n2CCC(F)F)cc1 : pIC50 at minimum 6?
Result string: Met

Query string: Evaluate CCn1c(-c2ccc(-n3cnn(C)c3=O)cn2)cc2cc(C(F)(F)F)cc(C(=O)Nc3cccc(C(N)=O)c3F)c21 : pIC50 at minimum 6?
Result string: Met

Continuing:
Query string: Evaluate CCn1c(-c2ccc(-n3c(C)nn(C)c3=O)cc2)cc2cc(C(F)(F)F)cc(C(=O)Nc3cccc(-c4ncc[nH]4)c3)c21 : pIC50 at minimum 6?
Result string: Met

Query string: Evaluate Cc1nn(C)c(=O)n1-c1ccc(-c2cc3ccnc(C(=O)Nc4ccc(F)c(C(N)=O)c4)c3n2CCC(F)F)cc1 : pIC50 at minimum 6?
Result string: Met

Query string: Evaluate COCCn1c(-c2ccc(-n3c(C)nn(C)c3=O)cc2)cc2cc(C(F)(F)F)cc(COc3cccc(C(N)=O)c3)c21 : pIC50 at minimum 6?
Result string: Met

----------
biological target: human STAT6/pIL-4Rα (Homo sapiens, UniProt P42226); construct: histidine tag; assay: Binding inhibitory activity between human STAT6/pIL-4Rα by fluorescence polarization method; conditions: rhSTAT6 (123-658) / FAM-pIL-4Rα peptide
quantity: pIC50
pIC50 is a log-scale quantity: -log10 of the concentration expressed in molar.

Sample answers from the record:
Query string: Fill in pIC50 for record Cc1nn(C)c(=O)n1-c1ccc(-c2cc3cc(C(F)(F)F)cc(C(=O)Nc4ccc(F)c(C(N)=O)c4)c3n2CC2(C#N)CC2)cc1
Result string: 6.35

Query string: Fill in pIC50 for record CCn1c(-c2ccc(-n3c(C)nn(C)c3=O)cc2)cc2ccnc(C(=O)Nc3ccc(F)c(C(=O)Nc4cn(C)c(=O)n(C)c4=O)c3)c21
Result string: 6.54

Now consider a different compound.
Query string: Fill in pIC50 for record CCn1c(-c2ccc(-n3cnn(C)c3=O)cc2)nc2cc(C(F)(F)F)cc(C(=O)Nc3cccc(C(N)=O)c3F)c21
Result string: 6.41

----------
Target: human STAT6/pIL-4Rα (Homo sapiens, UniProt P42226)
Construct: histidine tag
Sequence (P42226 123-658): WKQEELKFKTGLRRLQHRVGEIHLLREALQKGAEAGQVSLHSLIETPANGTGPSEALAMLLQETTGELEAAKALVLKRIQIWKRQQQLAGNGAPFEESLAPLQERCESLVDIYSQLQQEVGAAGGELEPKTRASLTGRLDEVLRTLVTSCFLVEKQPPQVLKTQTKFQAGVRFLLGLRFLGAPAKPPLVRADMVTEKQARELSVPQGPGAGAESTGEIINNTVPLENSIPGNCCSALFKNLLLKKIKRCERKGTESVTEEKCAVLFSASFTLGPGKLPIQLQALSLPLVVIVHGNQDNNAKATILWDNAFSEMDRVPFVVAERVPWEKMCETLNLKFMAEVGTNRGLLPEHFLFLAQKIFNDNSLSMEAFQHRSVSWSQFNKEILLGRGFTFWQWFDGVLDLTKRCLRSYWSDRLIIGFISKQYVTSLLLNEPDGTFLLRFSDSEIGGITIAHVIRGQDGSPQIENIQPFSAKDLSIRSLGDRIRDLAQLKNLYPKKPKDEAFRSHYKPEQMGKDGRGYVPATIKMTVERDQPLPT
Experiment: Binding inhibitory activity between human STAT6/pIL-4Rα by fluorescence polarization method
Conditions: rhSTAT6 (123-658) / FAM-pIL-4Rα peptide
quantity: pIC50
pIC50 is a log-scale quantity: -log10 of the concentration expressed in molar.

Sample answers from the record:
Query string: Fill in pIC50 for record CCn1c(-c2ccc(-n3cnn(C)c3=O)cc2)cc2cc(Br)cc(C(=O)Nc3ccc(F)c(C(N)=O)c3)c21 [Ex. 9]
Result string: 6.35

Query string: Fill in pIC50 for record Cc1nn(C)c(=O)n1-c1ccc(-c2cc3ccnc(C(=O)Nc4ccc(F)c(C(N)=O)c4)c3n2CC2CCC2)cc1 [Ex. 121]
Result string: 6.38

Query string: Fill in pIC50 for record CCn1c(-c2ccc(-n3c(C)nn(C)c3=O)cc2)cc2ccnc(C(=O)Nc3cccc(C(=O)NCC#N)c3F)c21 [Ex. 190]
Result string: 6.39

Query string: Fill in pIC50 for record CCn1c(-c2ccc(-n3c(C)nn(C)c3=O)cc2)cc2nccc(C(=O)Nc3cccc(C(N)=O)c3F)c21 [Ex. 59]
Result string: 6.41

Query string: Fill in pIC50 for record CCn1ccc(NC(=O)c2cccc(NC(=O)c3cc(C(F)(F)F)cc4cc(-c5ccc(-n6c(C)nn(C)c6=O)cc5)n(CCOC)c34)c2)n1 [Ex. 177]
Result string: 6.52

Continuing:
Query string: Fill in pIC50 for record CCn1c(-c2ccc(-n3c(C)nn(C)c3=O)cc2)cc2cc(Cl)cc(C(=O)Nc3ccc(F)c(C(N)=O)c3)c21 [Ex. 56]
Result string: 6.57

Query string: Fill in pIC50 for record Cc1nn(C)c(=O)n1-c1ccc(-c2cc3cc(C(F)(F)F)cc(C(=O)Nc4ccc(F)c(C(N)=O)c4)c3n2C)cc1 [Ex. 55]
Result string: 5.59

Query string: Fill in pIC50 for record Cc1nn(C)c(=O)n1-c1ccc(-c2cc3ccnc(C(=O)Nc4cccc(C(N)=O)c4F)c3n2CC2CCC2)cc1 [Ex. 122]
Result string: 6.16
